Sourced from patent US20240116985A1

- target_or_system: full-length beta-Catenin (Uniprot ID P35222) (Homo sapiens)
- Construct: 10 nM full-length beta-Catenin (Uniprot ID P35222)
- method: Fluorescence polarization IC50 (beta-catenin / 5FAM-TCF4 10-53 competition)
- Assay type: binding
- run_parameters: fluorescence polarization, beta-catenin; read-out: FP EC50
// values below are reported IC50
Respond with the bare value in nM.

[[record]]
molecule = "CC(=O)N1CCC[C@]12CC=CCCCC1(CCCC=CCCCCCC[C@@](C)(C(=O)N[C@@H](Cc3ccccc3)C(=O)N[C@@H](Cc3csc4ccccc34)C(=O)N[C@@H](CCC(N)=O)C(N)=O)NC(=O)[C@H](C(C)C)NC(=O)[C@H](Cc3ccccc3)NC(=O)[C@H](C)NC(=O)[C@H](C)NC(=O)[C@H](CC(=O)O)NC(=O)[C@H](CC(=O)O)NC1=O)NC(=O)[C@H](CCC(N)=O)NC(=O)[C@H](CC(=O)O)NC2=O (some centres unmarked) [I-347]"
obs_value = 121


Prompt: Test system full-length beta-Catenin (Uniprot ID P35222) (Homo sapiens); read-out IC50; what value for CC(=O)N1CCC[C@]12CC=CCCCC1(CCCC=CCCCOC(=O)N3CC[C@@](C(=O)N[C@@H](Cc4ccsc4)C(=O)N[C@@H](Cc4csc5ccccc45)C(=O)N[C@@H](CCC(N)=O)C(N)=O)(C3)NC(=O)[C@H](CC(C)C)NC(=O)[C@H](Cc3ccccc3)NC(=O)[C@H](C)NC(=O)[C@H](C)NC(=O)[C@H](CN(CC(=O)O)CC(F)(F)F)NC(=O)[C@H](CC(=O)O)NC1=O)NC(=O)[C@H](CC(C)(C)C)NC(=O)[C@H](CC(=O)O)NC2=O (some centres unmarked) ?
Response: 7

====

// values below are reported IC50
- target_or_system: full-length beta-Catenin (Uniprot ID P35222) (Homo sapiens, UniProt P35222)
- Construct: 10 nM full-length beta-Catenin (Uniprot ID P35222)
- Sequence (P35222 whole entry): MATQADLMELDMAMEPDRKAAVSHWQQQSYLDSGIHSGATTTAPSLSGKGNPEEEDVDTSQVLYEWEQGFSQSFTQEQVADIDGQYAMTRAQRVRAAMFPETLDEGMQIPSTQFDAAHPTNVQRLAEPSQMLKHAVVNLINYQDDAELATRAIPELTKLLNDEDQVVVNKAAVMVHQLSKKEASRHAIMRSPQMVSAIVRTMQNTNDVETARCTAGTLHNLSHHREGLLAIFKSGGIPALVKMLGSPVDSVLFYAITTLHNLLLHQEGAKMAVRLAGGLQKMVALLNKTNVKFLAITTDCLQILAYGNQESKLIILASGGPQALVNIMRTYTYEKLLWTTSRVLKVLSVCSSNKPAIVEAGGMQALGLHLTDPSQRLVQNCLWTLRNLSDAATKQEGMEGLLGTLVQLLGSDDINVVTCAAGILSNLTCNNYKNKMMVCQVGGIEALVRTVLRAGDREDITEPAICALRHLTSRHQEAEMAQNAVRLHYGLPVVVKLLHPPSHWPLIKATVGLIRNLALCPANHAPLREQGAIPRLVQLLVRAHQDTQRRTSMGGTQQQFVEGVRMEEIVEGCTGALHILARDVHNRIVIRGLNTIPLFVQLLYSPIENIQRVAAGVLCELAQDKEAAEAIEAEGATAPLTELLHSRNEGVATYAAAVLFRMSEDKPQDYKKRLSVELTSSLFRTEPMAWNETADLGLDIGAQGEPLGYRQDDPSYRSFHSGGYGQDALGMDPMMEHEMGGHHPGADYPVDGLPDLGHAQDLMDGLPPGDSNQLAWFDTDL
- method: Fluorescence polarization IC50 (beta-catenin / 5FAM-TCF4 10-53 competition)
- Format: binding
- run_parameters: fluorescence polarization; read-out: beta-Catenin FP IC50
Respond with the bare value in nM.

[[record]]
compound = "CC(C)C[C@@H]1NC(=O)[C@H](Cc2ccccc2)NC(=O)[C@H](C)NC(=O)[C@H](C)NC(=O)[C@H](Cc2cccc(C(=O)O)c2)NC(=O)[C@H](CC(=O)O)NC(=O)C2(CCCCCCCCOC(=O)N3CC[C@@](C(=O)N[C@@H](Cc4ccccc4C(F)(F)F)C(=O)N[C@@H](Cc4csc5ccccc45)C(=O)N[C@@H](CCC(N)=O)C(N)=O)(C3)NC1=O)CCCCCC[C@@]13CCCN1C(=O)CCCCCC[C@H](NC(=O)[C@H](CC(=O)O)NC3=O)C(=O)N2 (some centres unmarked) [I-2529]"
value_unit = "nM"
obs_value = 153


Prompt: Query: IC50; subject: CC(=O)N1CCC[C@]12CC=CCCCC1(CCCC=CCCCOC(=O)N3CC[C@@](C(=O)N[C@@H](Cc4ccccc4Cl)C(=O)N[C@@H](Cc4csc5ccccc45)C(=O)N[C@@H](CCC(N)=O)C(N)=O)(C3)NC(=O)[C@H](CC(N)=O)NC(=O)[C@H](Cc3ccccc3)NC(=O)[C@H](C)NC(=O)[C@H](C)NC(=O)[C@H](CC(=O)O)NC(=O)[C@H](CC(=O)O)NC1=O)NC(=O)[C@H](CC(C)(C)C)NC(=O)[C@H](CC(=O)S)NC2=O (some centres unmarked) [I-1721]
Response: 139
